Exercise: for every item that follows, state its recorded IC50.
Tested on: BT-20
Test: MTT cytotoxicity assay, BT-20
Assay type: cell-based
Settings: Homo sapiens, mean ± SEM of three independent experiments in triplicate, read-out: IC50 Breast Cancer BT-20
// units = µM; emit number, no label

Qu. Name the recorded IC50 of the compound listed here: O=C(COc1cc(O)c2c(=O)cc(-c3ccccc3)oc2c1)N/N=C/c1ccc(O)cc1O [Compound 4g]
Ans. 5.32

Qu. Supply IC50 value. Item: O=C(COc1cc(O)c2c(=O)cc(-c3ccccc3)oc2c1)N/N=C/c1cc([N+](=O)[O-])ccc1O [Compound 4o]
Ans. 7.25

Qu. Quote IC50 reported for O=C(COc1cc(O)c2c(=O)cc(-c3ccccc3)oc2c1)N/N=C/c1ccccc1O [Compound 4a] please.
Ans. 4.41

Qu. Indicate its recorded IC50; the compound in question is O=C(COc1cc(O)c2c(=O)cc(-c3ccccc3)oc2c1)N/N=C/c1ccc(O)c(O)c1O [Compound 4i]
Ans. 10.4
